# target_system: UniProt:Q8TDS7
# Sequence (Q8TDS7 whole entry): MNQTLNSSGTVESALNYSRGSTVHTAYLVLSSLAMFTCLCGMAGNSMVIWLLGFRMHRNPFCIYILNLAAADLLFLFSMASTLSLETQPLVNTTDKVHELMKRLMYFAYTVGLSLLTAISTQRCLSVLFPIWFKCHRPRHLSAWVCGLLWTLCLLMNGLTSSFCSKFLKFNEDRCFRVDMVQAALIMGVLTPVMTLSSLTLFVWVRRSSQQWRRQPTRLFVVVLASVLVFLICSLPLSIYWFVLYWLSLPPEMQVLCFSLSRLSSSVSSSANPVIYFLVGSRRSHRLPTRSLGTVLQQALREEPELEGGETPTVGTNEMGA
# assay_notes: MRGPRD antagonist activity, IP-One HTRF assay in CHO cells stably expressing human MRGPRD (versus 100 μM β-Alanine agonist)
pIC50: −log10 of the molar value.
measurement_label: pIC50

Input line: May I ask what pIC50 has been recorded for O=C(Nc1ccncc1)c1nnn(-c2ncc(-c3ccccc3)s2)c1C1CC1 ?
Output line: < 5.52

Input line: May I ask what pIC50 has been recorded for Cc1ccc(CNC(=O)c2nnn(-c3ccc(-c4ccc(C#N)nc4)cc3)c2C(C)C)cn1 ?
Output line: 5.52 to 6.00

Input line: May I ask what pIC50 has been recorded for O=C(Nc1ccncc1)c1nnn(-c2ccc(-c3cccnc3)cc2)c1C1CC1 ?
Output line: 5.52 to 6.00

Input line: May I ask what pIC50 has been recorded for COc1ccccc1CCNC(=O)c1nnn(-c2ccc(-c3ccccc3)cc2)c1C1CC1 ?
Output line: < 5.52

Input line: May I ask what pIC50 has been recorded for CC(C)c1cccc(-c2ccc(-n3nnc(C(=O)Nc4ccncc4)c3C3CC3)cc2)c1 ?
Output line: 6.30 to 7.00

Input line: May I ask what pIC50 has been recorded for CC1(C)COCCC1NC(=O)c1nnn(-c2ccc(-c3ccccc3)cc2)c1C1CC1 (centres unmarked) ?
Output line: 5.52 to 6.00

Input line: May I ask what pIC50 has been recorded for Cc1nn(-c2ccccc2)c(C)c1-c1ccc(-n2nnc(C(=O)Nc3ccc(NS(C)(=O)=O)cc3)c2C2CC2)cc1 ?
Output line: 6.00 to 6.30

Input line: May I ask what pIC50 has been recorded for CCCn1cc(-c2ccc(-n3nnc(C(=O)Nc4ccncc4)c3C3CC3)cc2)cn1 ?
Output line: 6.30 to 7.00

Input line: May I ask what pIC50 has been recorded for CC(=O)c1cccc(-c2cccc(-n3nnc(C(=O)NC(C)c4nc5ccccc5n4C)c3C3CC3)c2)c1 (centres unmarked) ?
Output line: < 5.52

Input line: May I ask what pIC50 has been recorded for Cc1cccc(-c2cccc(-n3nnc(C(=O)Nc4ccncc4)c3C3CC3)c2)c1 ?
Output line: 5.52 to 6.00

Input line: May I ask what pIC50 has been recorded for Cc1c(-c2ccc(-n3nnc(C(=O)Nc4ccncc4)c3C3CC3)cc2)c(CO)nn1C ?
Output line: 6.30 to 7.00

Input line: May I ask what pIC50 has been recorded for O=C(Nc1ccncc1)c1nnn(-c2ccc(-c3cccc(Cl)c3)cc2)c1C1CC1 ?
Output line: 6.30 to 7.00

Input line: May I ask what pIC50 has been recorded for Cc1cc(NC(=O)c2nnn(-c3ccc(-c4c(C)nn(C)c4C)cc3)c2C2CC2)ccn1 ?
Output line: > 7.00

Input line: May I ask what pIC50 has been recorded for O=C(Nc1ccncc1)c1nnn(-c2ccc(-c3cnn(C4CCCC4)c3)cc2)c1C1CC1 ?
Output line: 6.30 to 7.00
